Reference source: patent US6486199B1

Below: a set of entries, each annotated with reported P. berghei (1 day) ED90 po.
tested on: P. berghei; assay: 1-day Peters test against P. berghei in vivo; settings: 1 day, po
Report the value in mg/kg with no unit label.

Some solved entries appear below for comparison.
molecule | P. berghei (1 day) ED90 po, mg/kg
Fc1ccc(C2CCC3(CC2)OOC2(O3)C3CC4CC(C3)CC2C4)cc1 (stereo not drawn) | 5.1
c1ccc(C2CCC3(CC2)OOC2(O3)C3CC4CC(C3)CC2C4)cc1 (stereo not drawn) | 3.2
c1ccc(CON=C2CCC3(CC2)OOC2(O3)C3CC4CC(C3)CC2C4)cc1 (stereo not drawn) | 9.4
Clc1ccc(C2(c3ccc(Cl)cc3)OOC3(O2)C2CC4CC(C2)CC3C4)cc1 (stereo not drawn) | 4.0
CCO[C@H]1O[C@@H]2O[C@@]3(C)CC[C@H]4[C@H](C)CC[C@@H]([C@H]1C)[C@@]24OO3 [Arteether, arteether, reference compound] | 6.8

Challenge: Data request, read-out P. berghei (1 day) ED90 po, for OC1CCC2(CC1)OOC1(O2)C2CC3CC(C2)CC1C3 (stereo not drawn)
Response given: 13

Challenge: Request: O=C1CCC2(CC1)OOC1(O2)C2CC3CC(C2)CC1C3 (stereo not drawn)
Response given: 7.0

Challenge: Request: CCCC1CCC2(CC1)OOC1(O2)C2CC3CC(C2)CC1C3 (stereo not drawn)
Response given: 3.1

Challenge: Request: CON=C1CCC2(CC1)OOC1(O2)C2CC3CC(C2)CC1C3 (stereo not drawn)
Response given: 5.9

###

system: ANKA strain of P. Berghei; assay: single dose STI in vivo screen in infected Moro SPF mice; conditions: single 10 mg/kg sc
recorded-endpoint: Survival (days) sc
Report the value in days with no unit label.

compound | recorded-endpoint | measured-number
C[C@H]1[C@H](OC(=O)CCC(=O)O)O[C@@H]2O[C@@]3(C)CC[C@H]4[C@H](C)CC[C@@H]1[C@@]24OO3 [Artesunate, artesunate, reference compound] | Survival (days) sc | 8.0

Consider the additional compound presented here.
Challenge: Data request, read-out Survival (days) sc, for CO[C@H]1O[C@@H]2O[C@@]3(C)CC[C@H]4[C@H](C)CC[C@@H]([C@H]1C)[C@@]24OO3 [Artemether, artemether, reference compound]
Response given: 9.0

###

system: NB2a cell line; experiment: neurotoxicity against the NB2a cell line; type: cell-based; conditions: NB2a cell line
Below: a set of entries, each annotated with reported IC50.
Report the value in µM with no unit label.

Some solved entries appear below for comparison.
compound | IC50 (µM)
C1C2CC3CC1CC(C2)C31OOC2(O1)C1CC3CC(C1)CC2C3 (stereo not drawn) | 44
CCOC(=O)CCC1CCCCC12OOC1(O2)C2CC3CC(C2)CC1C3 (stereo not drawn) | 42

Consider the additional compound presented here.
Challenge: Data request, read-out IC50, for O=C1CCC2(CC1)OOC1(O2)C2CC3CC(C2)CC1C3 (stereo not drawn)
Response given: 31

###

experiment: differential scanning calorimetry (DSC), thermal stability; format: physicochemical; conditions: thermal decomposition
recorded-endpoint: Tm dec. (° C.) (°C)
Report the value in °C with no unit label.

molecule | Tm dec. (° C.) (°C)
O=C(NN=C1CCC2(CC1)OOC1(O2)C2CC3CC(C2)CC1C3)Nc1ccccc1 (stereo not shown) | 174.8
CC1(C)CC(C)(C)CC2(C1)OOC1(O2)C2CC3CC(C2)CC1C3 (stereo not shown) | 173.4

Consider the additional molecule presented here.
Challenge: Data request, read-out Tm dec. (° C.), for OC1CCC2(CC1)OOC1(O2)C2CC3CC(C2)CC1C3 (stereo not shown)
Response given: 147.9

###

system: chloroquine-resistant K1 strain of P. falciparum; experiment: in vitro screen against chloroquine-resistant K1 strain of P. falciparum; type: cell-based; details: in vitro; strains not distinguished
recorded-endpoint: in vitro potency

compound | result
c1ccc2c(c1)CCC1(C2)OOC2(O1)C1CC3CC(C1)CC2C3 (centres unmarked) | very active
c1ccc2c(c1)CCCC21OOC2(O1)C1CC3CC(C1)CC2C3 (centres unmarked) | very active

###

system: ANKA strain of P. Berghei; assay: single dose STI in vivo screen in infected Moro SPF mice; settings: single 10 mg/kg sc
recorded-endpoint: Survival (days) sc

Some solved entries appear below for comparison.
compound | Survival (days) sc
C1CCC2(CC1)OOC1(O2)C2CC3CC(C2)CC1C3 (stereo not shown) | 11.9 days
c1ccc(C2CCC3(CC2)OOC2(O3)C3CCCC2CCC3)cc1 (stereo not shown) | 5.0/5.0 days
CC(=O)OC1(c2ccc(F)cc2)CCC2(CC1)OOC1(O2)C2CC3CC(C2)CC1C3 (stereo not shown) | 6.3/6.3 days

Consider the additional compound presented here.
Challenge: Data request, read-out Survival (days) sc, for O=C(O)CON=C1CCC2(CC1)OOC1(O2)C2CC3CC(C2)CC1C3 (stereo not shown)
Response given: 7.0/7.0 days

###

Below: a set of entries, each annotated with reported in vitro potency, fold less potent than the analog.
system: chloroquine-resistant K1 strain of P. falciparum; test: in vitro screen against chloroquine-resistant K1 strain of P. falciparum; type: cell-based; settings: in vitro
Report the value in fold with no unit label.

molecule | measured-number
O=C1CCC2(CC1)OOC1(CCCCCCCCCCC1)O2 | 70

Challenge: Data request, read-out in vitro potency, fold less potent than the analog, for CC(=O)N1CCC2(CC1)OOC1(O2)C2CC3CC(C2)CC1C3 (centres unmarked)
Response given: 2

###

tested on: P. berghei; test: 1-day Peters test against P. berghei in vivo; conditions: 1 day, po
Hi! Could you tag entries with P. berghei (1 day) ED50 po below 3 mg/kg as TRUE, and those at or above as FALSE? Much appreciated.

# example entries with known answers
compound | tested-on | class-label
Clc1ccc(C2(c3ccc(Cl)cc3)OOC3(O2)C2CC4CC(C2)CC3C4)cc1 (stereo not shown) [OZ43] | P. berghei | TRUE
CC1(C)COC2(CCC3(CC2)OOC2(O3)C3CC4CC(C3)CC2C4)OC1 (stereo not shown) [OZ11] | P. berghei | TRUE
OC1CCC2(CC1)OOC1(O2)C2CC3CC(C2)CC1C3 (stereo not shown) [OZ32] | P. berghei | TRUE
c1ccc(C2CCC3(CC2)OOC2(O3)C3CC4CC(C3)CC2C4)cc1 (stereo not shown) [OZ27] | P. berghei | TRUE
CON=C1CCC2(CC1)OOC1(O2)C2CC3CC(C2)CC1C3 (stereo not shown) [OZ15] | P. berghei | FALSE

Challenge: Regarding CCO[C@H]1O[C@@H]2O[C@@]3(C)CC[C@H]4[C@H](C)CC[C@@H]([C@H]1C)[C@@]24OO3 [Arteether, arteether, reference compound] , kindly confirm whether its P. berghei (1 day) ED50 po is beneath 3 mg/kg.
Response given: TRUE

Challenge: Request: CCCC1CCC2(CC1)OOC1(O2)C2CC3CC(C2)CC1C3 (stereo not shown) [OZ25]
Response given: TRUE

Challenge: Request: O=C(c1ccccc1)N1CCC2(CC1)OOC1(O2)C2CC3CC(C2)CC1C3 (stereo not shown) [OZ24]
Response given: FALSE

###

system: parasitemia; test: onset of drug action and recrudescence after single oral dose; assay type: in vivo; details: single 100 mg/kg po
recorded-endpoint: duration of action compared with artemether

compound | result
CC1(C)COC2(CCC3(CC2)OOC2(O3)C3CC4CC(C3)CC2C4)OC1 (stereo not shown) | longer
O=C1CCC2(CC1)OOC1(O2)C2CC3CC(C2)CC1C3 (stereo not shown) | comparable
C1CCC2(CC1)OOC1(O2)C2CC3CC(C2)CC1C3 (stereo not shown) | comparable
c1ccc(C2CCC3(CC2)OOC2(O3)C3CC4CC(C3)CC2C4)cc1 (stereo not shown) | longer

###

test system: ANKA strain of P. Berghei; assay: single dose STI in vivo screen in infected Moro SPF mice; conditions: percent reduction in parasitemia day 3 post-infection; single 100 mg/kg sc
Below: a set of entries, each annotated with reported Activity (%) sc.

molecule | result
C1CCC2(CC1)OOC1(O2)C2CC3CC(C2)CC1C3 (stereo not drawn) | 100/100%
O=C1CCC2(CC1)OOC1(O2)C2CC3CC(C2)CC1C3 (stereo not drawn) | 100/100%

Challenge: Which measured Activity (%) sc belongs to C[C@@H]1CC[C@H]2[C@@H](C)C(=O)O[C@@H]3O[C@@]4(C)CC[C@@H]1[C@]32OO4 [Artemisinin, artemisinin, reference compound] , tested on ANKA strain of P. Berghei?
Response given: 100%

###

test: differential scanning calorimetry (DSC), thermal stability; type: physicochemical; details: thermal decomposition
recorded-endpoint: Tm dec. (° C.) (°C)
Report the value in °C with no unit label.

compound | measured-number
O=C(c1ccccc1)N1CCC2(CC1)OOC1(O2)C2CC3CC(C2)CC1C3 (stereo not drawn) [OZ24] | 154.9
CCN(CC)C(=O)C1CCC2(CC1)OOC1(O2)C2CC3CC(C2)CC1C3 (stereo not drawn) [OZ73] | 160.2
c1ccc2c(c1)CCC1(C2)OOC2(O1)C1CC3CC(C1)CC2C3 (stereo not drawn) [OZ85] | 152.8
FC(F)(F)c1ccc(C2CCC3(CC2)OOC2(O3)C3CC4CC(C3)CC2C4)cc1 (stereo not drawn) [OZ48] | 156.1
C1CCC2(CC1)OOC1(CCC3(CC1)OOC1(CCCCC1)O3)O2 (stereo not drawn) [OZ09] | 196.5

Challenge: Data request, read-out Tm dec. (° C.), for CC1(C)COC2(CCC3(CC2)OOC2(O3)C3CCCC2CCC3)OC1 (stereo not drawn) [OZ68]
Response given: 163.1

Challenge: Request: COC1(c2ccc(F)cc2)CCC2(CC1)OOC1(O2)C2CC3CC(C2)CC1C3 (stereo not drawn) [OZ77]
Response given: 161.3

Challenge: Request: c1ccc(C2(c3ccccc3)CCC3(CC2)OOC2(O3)C3CC4CC(C3)CC2C4)cc1 (stereo not drawn) [OZ34]
Response given: 181.4

Challenge: Request: CC1(C)COC2(CCC3(CC2)OOC2(CC(C)(C)CC(C)(C)C2)O3)OC1 [OZ36]
Response given: 201.7
